Tested on: mammary Tumoral cells MCF-7
Test Method Notes: Anti-proliferative activity against the increase of mammary tumoral cells MCF-7 (ADN by DABA fluorimetry)
Format: cell-based
Conditions: Homo sapiens, MCF7, 144 h; MCF-7 cells, SVF medium, 6 days, ADN content; read-out: CI50 in nM (concentration which inhibits by 50% the increase in the MCF 7 cells)
Endpoint Name: IC50 (nM)

# annotated cases, reported IC50 shown
compound="CN(C)c1ccc(C2=CC[C@H]3[C@@H]4CCC5=CC(=O)CCC5=C4[C@@H](c4ccc(N(C)C)cc4)C[C@]23C)cc1 [Example 3]" recorded_result=800
compound="CN(C)c1ccc([C@H]2C[C@@]3(C)[C@@H](CC[C@@]3(O)c3ccc(N(C)C)cc3)[C@@H]3CCC4=CC(=O)CCC4=C32)cc1 [Example 2]" recorded_result=500
compound="CN(C)c1ccc([C@H]2C[C@@]3(C)[C@@H](CC[C@@]3(O)c3ccc(O)cc3)[C@@H]3CCC4=CC(=O)CCC4=C32)cc1 [6 Product A]" recorded_result=50

[P] CN(C)c1ccc([C@H]2C[C@]3(C)C(c4ccc(O)cc4)=CC[C@H]3[C@@H]3CCC4=CC(=O)CCC4=C32)cc1 [6 Product B]
[Q] COc1ccc(C2=CC[C@H]3[C@@H]4CCC5=CC(=O)CCC5=C4[C@@H](c4ccc(N(C)C)cc4)C[C@]23C)cc1 [Example 5]
Q. Return label of the item with the larger IC50. Candidates: P , Q . Provide the label of your selected option as the answer.
A. Q

* * *

Study Target: progesterone receptors of rabbit uterus (Oryctolagus cuniculus, UniProt P06186)
Construct: The first test was on the progesterone receptors of rabbit uterus; from tissue; host or cells: uterus of estradiol-treated immature rabbits, 105,000 g supernatant (cytosol)
Sequence (P06186 whole entry): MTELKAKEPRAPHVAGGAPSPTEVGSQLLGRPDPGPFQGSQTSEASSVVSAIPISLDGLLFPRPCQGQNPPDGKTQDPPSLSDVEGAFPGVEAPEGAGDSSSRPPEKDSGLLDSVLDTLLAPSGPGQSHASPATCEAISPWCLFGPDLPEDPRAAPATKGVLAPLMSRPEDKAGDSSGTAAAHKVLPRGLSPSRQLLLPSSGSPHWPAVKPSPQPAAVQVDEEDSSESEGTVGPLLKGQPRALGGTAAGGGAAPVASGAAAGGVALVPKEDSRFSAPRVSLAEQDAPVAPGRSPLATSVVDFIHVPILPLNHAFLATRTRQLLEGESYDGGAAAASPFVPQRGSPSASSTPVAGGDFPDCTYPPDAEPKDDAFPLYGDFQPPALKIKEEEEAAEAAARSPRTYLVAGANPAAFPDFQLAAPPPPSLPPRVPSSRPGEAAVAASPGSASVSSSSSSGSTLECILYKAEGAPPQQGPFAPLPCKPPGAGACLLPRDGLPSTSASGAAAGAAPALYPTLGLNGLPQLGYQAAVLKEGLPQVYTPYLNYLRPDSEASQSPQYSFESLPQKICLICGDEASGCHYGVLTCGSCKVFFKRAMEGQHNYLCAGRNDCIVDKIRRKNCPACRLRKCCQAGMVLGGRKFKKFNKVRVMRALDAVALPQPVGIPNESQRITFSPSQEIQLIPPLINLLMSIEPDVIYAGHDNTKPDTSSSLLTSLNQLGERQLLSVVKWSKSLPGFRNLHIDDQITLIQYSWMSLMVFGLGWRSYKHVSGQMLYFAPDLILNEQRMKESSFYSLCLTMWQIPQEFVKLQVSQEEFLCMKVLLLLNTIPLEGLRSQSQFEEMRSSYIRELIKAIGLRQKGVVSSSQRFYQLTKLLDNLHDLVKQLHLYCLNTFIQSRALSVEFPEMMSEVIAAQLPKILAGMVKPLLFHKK
Test Method Notes: Relative binding affinity (ARL), progesterone receptors of rabbit uterus
Conditions: incubation 24H at 0° C.; rabbit uterus cytosol; tritiated 17,21-dimethyl-19-nor-Δ4,9-pregnadiene-3,20-dione; cold reference hormone progesterone
Description: The first test was on the progesterone receptors of rabbit uterus in which immature rabbits weighing about 1 kg received a cutaneous application of […] of estradiol and 5 days after treatment, the animals were sacrificed. […] The concentration of bound tritiated R was measured for each incubate by absorption technique on dextran carbon. The relative affinity of the bond (ARL) was calculated in the same for the receptors. […]
Endpoint Name: relative affinity of the bond (ARL), Progestogen, 24H

These solved cases illustrate the format of a correct answer.
structure_smiles=CN(C)c1ccc([C@H]2C[C@@]3(C)[C@@H](CC[C@@]3(O)c3ccccc3O)[C@@H]3CCC4=CC(=O)CCC4=C32)cc1 recorded_result=189
structure_smiles=COc1cccc([C@]2(O)CC[C@H]3[C@@H]4CCC5=CC(=O)CCC5=C4[C@@H](c4ccc(N(C)C)cc4)C[C@@]32C)c1 recorded_result=131

[a] CN(C)c1ccc([C@H]2C[C@@]3(C)[C@@H](CC[C@@]3(O)c3cccc(O)c3)[C@@H]3CCC4=CC(=O)CCC4=C32)cc1
[b] COc1ccccc1[C@]1(O)CC[C@H]2[C@@H]3CCC4=CC(=O)CCC4=C3[C@@H](c3ccc(N(C)C)cc3)C[C@@]21C
Q. # argmax over relative affinity of the bond (ARL), Progestogen, 24H for candidates a and b Answer by stating the label of the chosen item.
A. b
(b: 230, a: 122)

* * *

Study Target: progesterone receptors of rabbit uterus (Oryctolagus cuniculus)
Construct: The first test was on the progesterone receptors of rabbit uterus; from tissue; host or cells: uterus of estradiol-treated immature rabbits, 105,000 g supernatant (cytosol)
Test Method Notes: Relative binding affinity (ARL), progesterone receptors of rabbit uterus
Conditions: incubation 24H at 0° C.; rabbit uterus cytosol; tritiated 17,21-dimethyl-19-nor-Δ4,9-pregnadiene-3,20-dione; cold reference hormone progesterone
relative affinity of the bond (ARL), Progestogen, 24H: recorded values
Enter the number alone.

structure_smiles=CN(C)c1ccc([C@H]2C[C@@]3(C)[C@@H](CC[C@@]3(O)c3ccccc3)[C@@H]3CCc4cc(O)ccc4[C@H]32)cc1 recorded_result=67

Q. Name the reported relative affinity of the bond (ARL), Progestogen, 24H value associated with the compound COc1ccccc1[C@@]1(O)CC[C@H]2[C@@H]3CCC4=CC(=O)CCC4=C3[C@@H](c3ccc(N(C)C)cc3)C[C@@]21C
A. 49
